Assign TGI to each entry below.
- Test system: M14 melanoma
- Assay Details: NCI tumour cell line growth inhibition, 48 h

Sample `CC(C)(C)OC(=O)N/N=C(/N)c1ccccc1` — what was its TGI?
> 100 µM

Subsequent entry: `O=C(/C=C/c1cccc(B(O)O)c1)c1cccc(B(O)O)c1`
3.33 µM

Continue with CCOc1ccc2c(c1)NC(=O)C(C1OC(c3ccccc3)=CC1=O)S2 (stereo unspecified)
> 100 µM

Let us now turn to `Cc1ccc(-c2cc(/C=N/O)on2)cc1`
> 100 µM

Next up: `CCCCCc1c(C)[nH]c(/C=c2\[nH]/c(=C3/C=c4ccccc4=N3)cc2OC)c1C`
0.375 µM

Again, but for CC1C(=O)C23OC[C@@]1(C)C1(O)CC[C@@H](C)[C@]21CC3=O (stereo partly specified)
> 100 µM

Subsequent entry: `COC(=O)c1ccc(NCc2cc(O)ccc2O)cc1O`
31.7 µM

Another: `NCCc1ccc2c(c1)C(=O)c1c(O)ccc(O)c1C2=O`
> 100 µM

Similarly, `N#CC[C@H](C1CCCC1)n1cc(-c2ncnc3[nH]ccc23)cn1` ?
> 88.6 µM

Note, next up: `Nc1cccc2nsnc12`
> 100 µM

Next up: `C[n+]1c(-c2ccc(/C=N\NC(=O)c3ccc(C(=O)N/N=C/c4ccc(-c5cn6ccsc6[n+]5C)cc4)cc3)cc2)cn2ccsc21`
44.9 µM

###

- System: COLO 205 colon
- Assay Details: NCI tumour cell line growth inhibition, 48 h; in the data active means GI50 below about 0.43 µM; inactive means the rest
Field 'call' accepts label 1 for active, label 0 for inactive

Hey, what did the test say about CCOC(=O)CNC(=O)C(CSC(=O)N(C)O)NC(=O)CCC(N)C(=O)O (stereo not given) ?
label 0

What do you have for CSc1ccc(C2=NN(C(=O)c3ccc(N)cc3)C(c3ccc(F)cc3)C2)cc1 (stereo not given) ?
label 0

Entry to check: `Cc1cc2nc3c4ccccc4n(CCN(C)C)c3nc2cc1C`
label 0

Repeat for the following compound: CC(C)N(C[C@H]1O[C@@H](n2cnc3c(N)ncnc32)[C@H](O)[C@@H]1O)C1CC(CCc2nc3ccc(C(C)(C)C)cc3[nH]2)C1 (stereo not given in full)
label 0

// same read-out, input: `N#CC[C@H](C1CCCC1)n1cc(-c2ncnc3[nH]ccc23)cn1`
label 0

Can you check `Oc1[nH]c2ccc(Cl)cc2c1/C=c1/ccc2c(c1)N=C(c1cc(F)cc(F)c1)N=2` next?
label 0

Next compound up: `Brc1ccc(Br)nn1`
label 0

How about `N#CC(C#N)=Cc1ccc(-c2ccc(-c3nc4ccccc4o3)cc2)o1` ?
label 0

Here is the next compound: `CCC[CH2][Sn]1([CH2]CCC)[O]C(=O)c2cc(C)ccc2[O]1`
label 0

Would you kindly repeat that for CCN1C(=O)N(CC)C2C1NN=c1s/c(=C\c3ccccc3)c(=O)n12 (stereo not given) ?
label 1

###

For each entry below, report its TGI value.
- System: MOLT-4 leukemia
- Assay Details: NCI tumour cell line growth inhibition, 48 h

Checklist item: TGI tested on MOLT-4 leukemia, entry `O=[N+]([O-])c1cc(/C=N/NS(=O)(=O)c2ccc(F)cc2)c(O)c([N+](=O)[O-])c1` , value?
88.6 µM

Do the same for CC(C)N(C[C@H]1O[C@@H](n2cnc3c(N)ncnc32)[C@H](O)[C@@H]1O)C1CC(CCc2nc3ccc(C(C)(C)C)cc3[nH]2)C1 (stereo not given in full) please
> 81.3 µM

Here is the next compound: `O=C1c2cccc3cc([N+](=O)[O-])cc(c23)C(=O)N1O`
> 100 µM

Next compound up: `Cc1cc2nc3c4ccccc4n(CCN(C)C)c3nc2cc1C`
9.9 µM

Can you check `CCCCCc1c(C)[nH]c(/C=c2\[nH]/c(=C3/C=c4ccccc4=N3)cc2OC)c1C` next?
3.85 µM

Likewise for `CP(C)C.[Ag][I]` ?
> 100 µM

Okay, and `N#CC[C@H](C1CCCC1)n1cc(-c2ncnc3[nH]ccc23)cn1` ?
> 78.8 µM

Request: `O=[N+]([O-])c1ccc(-c2ccccc2)c([As](=O)(O)O)c1`
> 100 µM

Also need `C[C@H](O)C(=O)SC[C@H](NC(=O)CC[C@@H](N)C(=O)O)C(=O)NCC(=O)O` , thanks.
> 100 µM

Also `O=C(O)Cc1ccc2c(c1O)C(=O)c1c(ccc(CC(=O)O)c1O)C2=O` , if possible.
> 100 µM

// provenance: PubChem BioAssay (NCI)
